Origin of the recorded values: patent US9370496B2

Test: Animal studies of alpha-tocotrienol quinone administration: pharmacokinetics in fasted dogs
Details: dog, in vivo, po, 10 mg/kg

| Compound | bioavailability |
| --- | --- |
| CC(C)=CCC/C(C)=C/CC/C(C)=C/CCC(C)(O)CCC1=C(C)C(=O)C(C)=C(C)C1=O (stereo not shown) | ~16% |
